System Under Test: c-Src SH2
Protocol Details: SH2 binding enrichment of the phosphorylated peptide, bacterial display (enrichment ratio); higher = better substrate or ligand; peptides without Tyr show the background
Quantity Kind: SH2 binding enrichment

Some sequences with known SH2 binding enrichment results, for comparison:
record_sequence="FSQQTYYRVSN [ABCD1_Y180]" system_under_test="c-Src SH2" quantity_kind="SH2 binding enrichment" measured_number=0.82
record_sequence="DEDEEYEFMNR [ERBB3_Y1197_YF]" system_under_test="c-Src SH2" quantity_kind="SH2 binding enrichment" measured_number=0.664
record_sequence="LHRAHYDLCHT [AHSG_Y314_R317C]" system_under_test="c-Src SH2" quantity_kind="SH2 binding enrichment" measured_number=2.25
record_sequence="FRVDCYKNFVA [FHL1_Y213_C209R_YF]" system_under_test="c-Src SH2" quantity_kind="SH2 binding enrichment" measured_number=0.656
record_sequence="MASISYDYCRV [BST2_Y6_T4I]" system_under_test="c-Src SH2" quantity_kind="SH2 binding enrichment" measured_number=1.22

I. RKRQFYLFKGK [RSPO4_Y112_C107R_YF]
II. AHAGGYGAEAL [HBA1_Y25_E24G]
Query: Of the two listed items, which has the higher SH2 binding enrichment? First: I Second: II Selection: enter the item's label.
Result: II
(II: 0.433, I: 0.296)

a. KLADIYQAELR [GFAP_Y116_V115I]
b. FQCKHYACIRQ [TIMP3_Y182_S179C_YF]
c. GLIPAYHRFIM [NMNAT1_Y64_V67F]
d. LPVHFYSHVEH [PYGM_Y204_G205S]
e. RRIHSHRGHLW [VHL_Y112_Y112H]
Query: Exam item: list the entries in increasing order of SH2 binding enrichment. Give your ranking as a list of the labels in the requested order.
Result: e, a, c, b, d
(e: 0.378, a: 0.541, c: 1.44, b: 2.38, d: 22.2)

a. ACDALYPPGPP
b. EILLSDLRTGF [TGM1_Y365_Y365D_YF]
c. SWSTSYSGYRY [NKAPL_Y91]
d. MMVGAYSTLEG [ECPAS_Y470]
e. QTPVLYTMLDH [MPZ_Y220_A221T]
Query: Order the items by recorded SH2 binding enrichment; the first position goes to the largest value. Give your ranking as a list of the labels in the requested order.
Result: d, e, c, a, b
(d: 11.7, e: 3.44, c: 1.03, a: 0.632, b: 0.417)

###

System Under Test: Fyn (UniProt P06241)
Sequence (P06241 whole entry, looked up): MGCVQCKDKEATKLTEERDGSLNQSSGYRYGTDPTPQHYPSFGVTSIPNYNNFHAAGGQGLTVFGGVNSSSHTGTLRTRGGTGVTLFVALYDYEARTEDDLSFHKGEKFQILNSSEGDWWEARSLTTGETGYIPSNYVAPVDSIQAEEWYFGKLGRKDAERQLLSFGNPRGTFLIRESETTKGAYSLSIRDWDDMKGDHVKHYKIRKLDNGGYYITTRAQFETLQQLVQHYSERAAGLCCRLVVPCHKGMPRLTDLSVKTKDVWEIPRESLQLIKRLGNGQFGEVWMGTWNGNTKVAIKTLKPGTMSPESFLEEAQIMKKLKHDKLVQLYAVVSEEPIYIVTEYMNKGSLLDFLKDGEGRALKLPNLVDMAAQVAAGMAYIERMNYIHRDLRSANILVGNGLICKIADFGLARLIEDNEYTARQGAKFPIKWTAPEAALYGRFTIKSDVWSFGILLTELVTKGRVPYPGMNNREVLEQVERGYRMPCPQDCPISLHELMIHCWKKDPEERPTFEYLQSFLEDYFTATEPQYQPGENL
Protocol Details: phosphorylation enrichment, bacterial display (enrichment ratio); higher = better substrate or ligand; peptides without Tyr show the background
Catalogue of phosphorylation enrichment readings, one per entry.
# output: bare number, no unit

record_sequence="KMKGDYYRSLA [YWHAG_Y130_Y133S]" measured_number=0.388
record_sequence="KDQGIYEDFVE [MYL6_Y86_T85I_YF]" measured_number=2.6
record_sequence="VTRKEYFIFLE [CAMKV_Y95]" measured_number=0.481
record_sequence="NYAKMYCNPDA [KNL1_Y489]" measured_number=0.463
record_sequence="QPTPGYEVGQR [TSC2_Y1788_E1783Q]" measured_number=0.541
record_sequence="RIDRKYKKVRF [F8_Y442_G439D]" measured_number=0.849

Please turn your attention to the following entry.
Query: Tell me measured phosphorylation enrichment for SLFNGYVYSGV [NEIL3_Y71] please.
Result: 5.75

###

System Under Test: Fes (UniProt P07332)
Sequence (P07332 whole entry, looked up): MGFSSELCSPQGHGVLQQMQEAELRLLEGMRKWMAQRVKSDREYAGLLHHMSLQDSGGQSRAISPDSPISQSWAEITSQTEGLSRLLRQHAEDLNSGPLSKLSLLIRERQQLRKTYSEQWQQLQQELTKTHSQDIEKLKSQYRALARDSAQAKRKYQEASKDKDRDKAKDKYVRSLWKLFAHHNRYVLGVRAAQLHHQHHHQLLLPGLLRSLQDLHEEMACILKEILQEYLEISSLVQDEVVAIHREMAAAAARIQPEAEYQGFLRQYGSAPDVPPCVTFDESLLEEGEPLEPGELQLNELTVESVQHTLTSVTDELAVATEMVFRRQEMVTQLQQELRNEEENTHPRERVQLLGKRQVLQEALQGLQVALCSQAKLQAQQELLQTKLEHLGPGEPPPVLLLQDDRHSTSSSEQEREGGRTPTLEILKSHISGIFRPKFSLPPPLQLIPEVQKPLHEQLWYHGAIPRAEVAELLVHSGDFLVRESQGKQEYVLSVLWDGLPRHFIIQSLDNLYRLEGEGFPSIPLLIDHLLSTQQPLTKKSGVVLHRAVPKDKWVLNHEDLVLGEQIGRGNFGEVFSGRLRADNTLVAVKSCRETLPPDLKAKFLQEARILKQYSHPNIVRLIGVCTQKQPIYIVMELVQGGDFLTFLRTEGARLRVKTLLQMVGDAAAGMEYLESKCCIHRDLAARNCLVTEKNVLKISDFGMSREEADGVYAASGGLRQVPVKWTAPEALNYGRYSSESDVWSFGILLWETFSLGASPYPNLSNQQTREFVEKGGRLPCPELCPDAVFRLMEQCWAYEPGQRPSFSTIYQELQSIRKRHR
Protocol Details: phosphorylation enrichment, bacterial display (enrichment ratio); higher = better substrate or ligand; peptides without Tyr show the background
Catalogue of phosphorylation enrichment readings, one per entry.
# output: bare number, no unit

record_sequence="PNQRRYVYYYS [PTEN_Y174_S170N]" measured_number=2.29

Query: Tell me measured phosphorylation enrichment for SRGSSYNSIPK [FLNC_Y2625_S2626N] please.
Result: 0.642

Query: Tell me measured phosphorylation enrichment for PLCPDYQEPSR [DDR2_Y481_R478C] please.
Result: 2

Query: Tell me measured phosphorylation enrichment for CTTIHYNDMCN [TP53_Y234_Y236D] please.
Result: 0.85

Query: Tell me measured phosphorylation enrichment for EVESPYEVHDY [GIGYF2_Y1168] please.
Result: 1.1

Query: Tell me measured phosphorylation enrichment for VLICAYLLHRG [PTEN_Y138_M134L] please.
Result: 1.33

Query: Tell me measured phosphorylation enrichment for ERRLIYTSDPK [VPS13D_Y864] please.
Result: 0.64

Query: Tell me measured phosphorylation enrichment for TTKAKYKTPIF [PLD2_Y573_T577I_YF] please.
Result: 0.717

Query: Tell me measured phosphorylation enrichment for RLLVVYTWTQR [HBB_Y36_P37T] please.
Result: 2.12

Query: Tell me measured phosphorylation enrichment for KNKELYSDLFD [PDE10A_Y300] please.
Result: 1.14

Query: Tell me measured phosphorylation enrichment for TYGQVYKGRHV [TNIK_Y40] please.
Result: 0.488

Query: Tell me measured phosphorylation enrichment for NSNAAYEQSHF [LRIF1_Y714] please.
Result: 0.616

Query: Tell me measured phosphorylation enrichment for GGDGSYVSVPL [TNNI3K_Y425_S430L] please.
Result: 0.599

Query: Tell me measured phosphorylation enrichment for TIEDSYRKQVV [KRAS_Y40] please.
Result: 0.79

###

System Under Test: Grb2 SH2 (UniProt P62993)
Protocol Details: SH2 binding enrichment of the phosphorylated peptide, bacterial display (enrichment ratio); higher = better substrate or ligand; peptides without Tyr show the background
Quantity Kind: SH2 binding enrichment

Some sequences with known SH2 binding enrichment results, for comparison:
record_sequence="EEALYYLTRVE [SET_Y119_H118Y]" measured_number=0.947
record_sequence="FGVTLYPNSGE [MEP1A_Y472_R476G]" measured_number=0.9
record_sequence="EVEPTYVVLYD [ERCC4_Y577_R576T]" measured_number=0.775
record_sequence="SEDSEYFRAFE [CASQ2_Y178_K180R_YF]" measured_number=0.874
record_sequence="KTTSGYAGGLS [KRT8_Y419]" measured_number=1.32

1. PLKYLYPNIDK [STAT1_Y668]
2. HHTDECEYDEL [TGM1_Y134_Y134C]
3. NKVKFYIPYMN [NCR1_Y84_D87Y]
Query: Exam item: list the entries in increasing order of SH2 binding enrichment. Give your ranking as a list of the labels in the requested order.
Result: 1, 2, 3
(1: 0.785, 2: 1.21, 3: 1.74)

I. QCTSAYLLQPE [NANS_Y188_P189L]
II. GCRSKYVGLWR [KCNQ1_Y184_G189R]
Query: Of the two listed items, which has the higher SH2 binding enrichment? First: I Second: II Selection: enter the item's label.
Result: II
(II: 1.18, I: 0.793)

###

Catalogue of phosphorylation enrichment readings, one per entry.
Test system: AncSZ
Protocol Details: phosphorylation enrichment, bacterial display (enrichment ratio); higher = better substrate or ligand; peptides without Tyr show the background
# output: bare number, no unit

record_sequence="CPFNLYAEQLS [HGD_Y40_YF]" measured_number=1.15
record_sequence="TINPIHEHVGY [CHN1_Y143_Y143H]" measured_number=0.679
record_sequence="KMKGEYFRFLA [YWHAG_Y130_D129E_YF]" measured_number=0.791
record_sequence="MMVGAYSTLEG [ECPAS_Y470]" measured_number=0.765
record_sequence="EQKKYYNAMKK [SCN5A_Y1495]" measured_number=0.551

Query: Tell me measured phosphorylation enrichment for GRVFVYHLSEQ [ITGAE_Y551_R552H_YF] please.
Result: 0.986

Query: Tell me measured phosphorylation enrichment for CITIHYNYMCN [TP53_Y234_T230I] please.
Result: 0.923

Query: Tell me measured phosphorylation enrichment for NLNGKCNKPRA [ANGPTL3_Y417_Y417C] please.
Result: 0.596

###

System Under Test: EPHB1 (UniProt P54762)
Sequence (P54762 whole entry, looked up): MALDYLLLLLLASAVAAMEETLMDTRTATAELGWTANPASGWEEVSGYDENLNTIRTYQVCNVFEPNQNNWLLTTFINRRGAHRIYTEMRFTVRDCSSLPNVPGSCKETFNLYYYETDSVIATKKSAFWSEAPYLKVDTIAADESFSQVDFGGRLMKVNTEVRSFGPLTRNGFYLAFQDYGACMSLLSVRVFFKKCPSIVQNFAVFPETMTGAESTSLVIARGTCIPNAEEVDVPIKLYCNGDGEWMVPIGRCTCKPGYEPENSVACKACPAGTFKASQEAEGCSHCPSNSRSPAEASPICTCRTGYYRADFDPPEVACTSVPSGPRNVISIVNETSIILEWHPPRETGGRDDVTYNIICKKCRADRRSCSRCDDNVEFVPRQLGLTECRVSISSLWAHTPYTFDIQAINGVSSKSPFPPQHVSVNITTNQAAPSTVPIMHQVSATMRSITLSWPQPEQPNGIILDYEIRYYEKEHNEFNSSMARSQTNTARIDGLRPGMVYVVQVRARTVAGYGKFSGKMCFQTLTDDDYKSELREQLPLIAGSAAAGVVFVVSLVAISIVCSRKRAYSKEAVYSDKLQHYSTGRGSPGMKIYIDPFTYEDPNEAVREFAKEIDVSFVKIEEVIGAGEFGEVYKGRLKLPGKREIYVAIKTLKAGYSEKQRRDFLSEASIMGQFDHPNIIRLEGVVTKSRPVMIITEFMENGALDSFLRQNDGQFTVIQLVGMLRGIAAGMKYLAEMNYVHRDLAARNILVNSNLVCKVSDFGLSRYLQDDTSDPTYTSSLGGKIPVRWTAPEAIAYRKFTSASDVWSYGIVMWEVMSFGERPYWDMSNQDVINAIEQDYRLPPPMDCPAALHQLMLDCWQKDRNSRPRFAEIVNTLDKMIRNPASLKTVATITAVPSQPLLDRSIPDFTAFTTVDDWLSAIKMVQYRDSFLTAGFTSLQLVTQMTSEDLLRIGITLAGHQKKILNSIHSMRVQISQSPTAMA
Protocol Details: phosphorylation enrichment, bacterial display (enrichment ratio); higher = better substrate or ligand; peptides without Tyr show the background
Catalogue of phosphorylation enrichment readings, one per entry.
# output: bare number, no unit

Some sequences with known phosphorylation enrichment results, for comparison:
record_sequence="EKEKEYMLPLD [DNM2_Y563_K562E]" system_under_test="EPHB1 (UniProt P54762)" measured_number=0.48
record_sequence="QNVADYMRFLM [RPL5_Y207_YF]" system_under_test="EPHB1 (UniProt P54762)" measured_number=1.79

Query: Tell me measured phosphorylation enrichment for IVRSLYEDPED [VHL_Y185_L188P] please.
Result: 0.748

Query: Tell me measured phosphorylation enrichment for KANEFYPVVLI [ADAMTS18_Y765_YF] please.
Result: 0.448

Query: Tell me measured phosphorylation enrichment for LSEEKYELKEG [TREM1_Y29_T25S] please.
Result: 0.712

Query: Tell me measured phosphorylation enrichment for RHPYFFAPELL [ALB_Y174_Y174F] please.
Result: 0.723

Query: Tell me measured phosphorylation enrichment for KLASTYREAAT [DEAF1_Y483_H479L] please.
Result: 0.343

Query: Tell me measured phosphorylation enrichment for ANRNVYEVEPT [MEGF10_Y1075] please.
Result: 0.451

Query: Tell me measured phosphorylation enrichment for MKDLTYASLCF [ALOX5_Y446] please.
Result: 2.65

Query: Tell me measured phosphorylation enrichment for ISDEAYVMAGV [ERBB2_Y772_L768S] please.
Result: 0.495
